# Test system: MDA-MB-468 breast
# Assay summary: NCI-60 one-dose screen, 48 h
# Setup conditions: 10 µM unless noted
Compounds without any hit were thinned out: in the full panel of roughly 83,000, 20% have a hit. Calls of active or inactive are those of the source. The calls were made as follows: active = growth percent below 10; inactive = the rest.
Mark one answer only. Choices: active, inactive

Solved cases below.
Nc1nc2ccc3[nH]ncc3c2c2c1CCCC2 | active
COC(=O)C12C3C(=O)N(c4ccc(OC)cc4)C(=O)C3C(c3cn(-c4ccccc4)nc3C)N1[C@H](c1cn(-c3ccccc3)nc1C)[C@@H]1C(=O)N(c3ccc(OC)cc3)C(=O)[C@@H]12 (some centres undefined) | inactive

Lookup: Kindly provide the recorded test outcome for the following compound: CCOC(=O)N1CCN(c2nc(Nc3cc(C)[nH]n3)c3ccccc3n2)CC1
Found: inactive

Lookup: Called result for N#Cc1ccc(NC(=O)c2ccc3cccnc3c2O)cc1
Found: active
